assay: Selectivity index, ratio of IC50 for human MRC5 cells to IC50 for human HT-29 cells; assay type: toxicity; conditions: MRC5 cells versus HT-29 cells, read-out: Selectivity Index
Quick rule: selectivity ratio of at least 3 means fulfilled, below that means not fulfilled.

Solved cases below.
smilesStructure	label
CN(C)CCCN1C(=O)c2ccc3c4c(c(NCc5cn(CCS[C@@H]6O[C@H](CO)[C@@H](O[C@H]7O[C@H](CO)[C@@H](O)[C@H](O)[C@H]7O)[C@H](O)[C@H]6O)nn5)cc(c24)C1=O)C(=O)N(CCCN(C)C)C3=O	fulfilled
CN(C)CCCN1C(=O)c2ccc3c4c(c(NCc5cn(CCS[C@@H]6O[C@H](CO)[C@@H](O)[C@H](O)[C@H]6O)nn5)cc(c24)C1=O)C(=O)N(CCCN(C)C)C3=O	fulfilled
CN(C)CCCN1C(=O)c2ccc3c4c(c(NCc5cn(CCO[C@H]6O[C@H](CO)[C@@H](O)[C@H](O)[C@@H]6O)nn5)cc(c24)C1=O)C(=O)N(CCCN(C)C)C3=O	not fulfilled

Query: For this molecule, is measured selectivity ratio 3 or higher? `O=C1c2ccc3c4c(c(NCc5cn(CCO[C@@H]6O[C@H](CO)[C@@H](O[C@H]7O[C@H](CO)[C@@H](O)[C@H](O)[C@H]7O)[C@H](O)[C@H]6O)nn5)cc(c24)C(=O)N1CCN1CCOCC1)C(=O)N(CCN1CCOCC1)C3=O`
Reply: fulfilled

Query: For this molecule, is measured selectivity ratio 3 or higher? `CN(C)CCCN1C(=O)c2ccc3c4c(c(NCc5cn(CCS[C@@H]6O[C@H](CO)[C@H](O)[C@H](O)[C@H]6O)nn5)cc(c24)C1=O)C(=O)N(CCCN(C)C)C3=O`
Reply: fulfilled

Query: For this molecule, is measured selectivity ratio 3 or higher? `O=C1c2ccc3c4c(c(NCc5cn(CCS[C@H]6O[C@H](CO)[C@@H](O)[C@H](O)[C@@H]6O)nn5)cc(c24)C(=O)N1CCN1CCOCC1)C(=O)N(CCN1CCOCC1)C3=O`
Reply: fulfilled

Query: For this molecule, is measured selectivity ratio 3 or higher? `O=C1c2ccc3c4c(c(NCc5cn(CCS[C@@H]6O[C@H](CO)[C@@H](O[C@H]7O[C@H](CO)[C@@H](O)[C@H](O)[C@H]7O)[C@H](O)[C@H]6O)nn5)cc(c24)C(=O)N1CCN1CCOCC1)C(=O)N(CCN1CCOCC1)C3=O`
Reply: fulfilled

Query: For this molecule, is measured selectivity ratio 3 or higher? `CN(C)CCCN1C(=O)c2ccc3c4c(c(NCc5cn(CCO[C@@H]6O[C@H](CO)[C@@H](O[C@H]7O[C@H](CO)[C@@H](O)[C@H](O)[C@H]7O)[C@H](O)[C@H]6O)nn5)cc(c24)C1=O)C(=O)N(CCCN(C)C)C3=O`
Reply: fulfilled

Query: For this molecule, is measured selectivity ratio 3 or higher? `CN(C)CCCN1C(=O)c2ccc3c4c(c(NCc5cn(CCO[C@@H]6O[C@H](CO)[C@@H](O)[C@H](O)[C@H]6O)nn5)cc(c24)C1=O)C(=O)N(CCCN(C)C)C3=O`
Reply: not fulfilled

Query: For this molecule, is measured selectivity ratio 3 or higher? `O=C1c2ccc3c4c(c(NCc5cn(CCO[C@@H]6O[C@H](CO)[C@H](O)[C@H](O)[C@H]6O)nn5)cc(c24)C(=O)N1CCN1CCOCC1)C(=O)N(CCN1CCOCC1)C3=O`
Reply: not fulfilled

Query: For this molecule, is measured selectivity ratio 3 or higher? `CN(C)CCCN1C(=O)c2ccc3c4c(c(NCc5cn(CCS[C@H]6O[C@H](CO)[C@@H](O)[C@H](O)[C@@H]6O)nn5)cc(c24)C1=O)C(=O)N(CCCN(C)C)C3=O`
Reply: fulfilled

Query: For this molecule, is measured selectivity ratio 3 or higher? `O=C1c2ccc3c4c(c(NCc5cn(CCS[C@@H]6O[C@H](CO)[C@@H](O)[C@H](O)[C@H]6O)nn5)cc(c24)C(=O)N1CCN1CCOCC1)C(=O)N(CCN1CCOCC1)C3=O`
Reply: not fulfilled

Query: For this molecule, is measured selectivity ratio 3 or higher? `CN(C)CCCN1C(=O)c2ccc3c4c(c(NCc5cn(CCO[C@@H]6O[C@H](CO)[C@H](O)[C@H](O)[C@H]6O)nn5)cc(c24)C1=O)C(=O)N(CCCN(C)C)C3=O`
Reply: fulfilled

Query: For this molecule, is measured selectivity ratio 3 or higher? `O=C1c2ccc3c4c(c(NCc5cn(CCO[C@H]6O[C@H](CO)[C@@H](O)[C@H](O)[C@@H]6O)nn5)cc(c24)C(=O)N1CCN1CCOCC1)C(=O)N(CCN1CCOCC1)C3=O`
Reply: fulfilled

Query: For this molecule, is measured selectivity ratio 3 or higher? `O=C1c2ccc3c4c(c(NCc5cn(CCS[C@@H]6O[C@H](CO)[C@H](O)[C@H](O)[C@H]6O)nn5)cc(c24)C(=O)N1CCN1CCOCC1)C(=O)N(CCN1CCOCC1)C3=O`
Reply: not fulfilled

Query: For this molecule, is measured selectivity ratio 3 or higher? `O=C1c2ccc3c4c(c(NCc5cn(CCO[C@@H]6O[C@H](CO)[C@@H](O)[C@H](O)[C@H]6O)nn5)cc(c24)C(=O)N1CCN1CCOCC1)C(=O)N(CCN1CCOCC1)C3=O`
Reply: fulfilled

---

assay: Drug uptake in Trypanosoma brucei at 10 uM incubated for 2 hrs by fluorescence based multiplate reader method; format: ADME
endpointLabel: Drug uptake (%)
Quick note: give the figure in %, leave out the unit.

For orientation, consider the following solved cases.
smilesStructure	endpointLabel	resultUnits	value
O=C1c2ccc3c4c(c(NCc5cn(CCS[C@H]6O[C@H](CO)[C@@H](O)[C@H](O)[C@@H]6O)nn5)cc(c24)C(=O)N1CCN1CCOCC1)C(=O)N(CCN1CCOCC1)C3=O	Drug uptake	%	3.2
CN(C)CCCN1C(=O)c2ccc3c4c(c(NCc5cn(CCO[C@H]6O[C@H](CO)[C@@H](O)[C@H](O)[C@@H]6O)nn5)cc(c24)C1=O)C(=O)N(CCCN(C)C)C3=O	Drug uptake	%	8.1
O=C1c2ccc3c4c(c(NCc5cn(CCO[C@@H]6O[C@H](CO)[C@@H](O[C@H]7O[C@H](CO)[C@@H](O)[C@H](O)[C@H]7O)[C@H](O)[C@H]6O)nn5)cc(c24)C(=O)N1CCN1CCOCC1)C(=O)N(CCN1CCOCC1)C3=O	Drug uptake	%	6.1

For `CN(C)CCCN1C(=O)c2ccc3c4c(c(NCc5cn(CCS[C@@H]6O[C@H](CO)[C@@H](O[C@H]7O[C@H](CO)[C@@H](O)[C@H](O)[C@H]7O)[C@H](O)[C@H]6O)nn5)cc(c24)C1=O)C(=O)N(CCCN(C)C)C3=O` the molecule record lists Drug uptake as 4.3

For `O=C1c2ccc3c4c(c(NCc5cn(CCO[C@@H]6O[C@H](CO)[C@H](O)[C@H](O)[C@H]6O)nn5)cc(c24)C(=O)N1CCN1CCOCC1)C(=O)N(CCN1CCOCC1)C3=O` the molecule record lists Drug uptake as 5.4

For `O=C1c2ccc3c4c(c(NCc5cn(CCS[C@@H]6O[C@H](CO)[C@@H](O[C@H]7O[C@H](CO)[C@@H](O)[C@H](O)[C@H]7O)[C@H](O)[C@H]6O)nn5)cc(c24)C(=O)N1CCN1CCOCC1)C(=O)N(CCN1CCOCC1)C3=O` the molecule record lists Drug uptake as 6.7

For `CN(C)CCCN1C(=O)c2ccc3c4c(c(NCc5cn(CCS[C@H]6O[C@H](CO)[C@@H](O)[C@H](O)[C@@H]6O)nn5)cc(c24)C1=O)C(=O)N(CCCN(C)C)C3=O` the molecule record lists Drug uptake as 6.1

For `O=C1c2ccc3c4c(c(NCc5cn(CCO[C@H]6O[C@H](CO)[C@@H](O)[C@H](O)[C@@H]6O)nn5)cc(c24)C(=O)N1CCN1CCOCC1)C(=O)N(CCN1CCOCC1)C3=O` the molecule record lists Drug uptake as 4.2

For `O=C1c2ccc3c4c(c(NCc5cn(CCS[C@@H]6O[C@H](CO)[C@H](O)[C@H](O)[C@H]6O)nn5)cc(c24)C(=O)N1CCN1CCOCC1)C(=O)N(CCN1CCOCC1)C3=O` the molecule record lists Drug uptake as 6.8

For `CN(C)CCCN1C(=O)c2ccc3c4c(c(NCc5cn(CCO[C@@H]6O[C@H](CO)[C@@H](O[C@H]7O[C@H](CO)[C@@H](O)[C@H](O)[C@H]7O)[C@H](O)[C@H]6O)nn5)cc(c24)C1=O)C(=O)N(CCCN(C)C)C3=O` the molecule record lists Drug uptake as 7

---

assay: Selectivity index, ratio of IC50 for cytotoxicity against human MRC5 cells to IC50 for antitrypanosomal activity against Trypanosoma brucei; type: toxicity, cell-based; conditions: MRC5 cells versus Trypanosoma brucei, read-out: Selectivity Index
Each item that follows carries a reported selectivity ratio.
Simply state the number, no unit and no words.

For orientation, consider the following solved cases.
smilesStructure	value
CN(C)CCCN1C(=O)c2ccc3c4c(c(NCc5cn(CCO[C@@H]6O[C@H](CO)[C@@H](O[C@H]7O[C@H](CO)[C@@H](O)[C@H](O)[C@H]7O)[C@H](O)[C@H]6O)nn5)cc(c24)C1=O)C(=O)N(CCCN(C)C)C3=O	30
O=C1c2ccc3c4c(c(NCc5cn(CCS[C@@H]6O[C@H](CO)[C@H](O)[C@H](O)[C@H]6O)nn5)cc(c24)C(=O)N1CCN1CCOCC1)C(=O)N(CCN1CCOCC1)C3=O	27.6

# context switch: different molecule, same selectivity ratio
For `CN(C)CCCN1C(=O)c2ccc3c4c(c(NCc5cn(CCO[C@H]6O[C@H](CO)[C@@H](O)[C@H](O)[C@@H]6O)nn5)cc(c24)C1=O)C(=O)N(CCCN(C)C)C3=O` the molecule record lists selectivity ratio as 19
